Target: Ribosomal protein S6 kinase alpha-4 (Homo sapiens);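 also: mean inhibition of MSK2, GSK PKIS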
Conditions: at 1 µM
Assay Endpoint: inhibition (%)
One number for each entry, in %.

{"Given Smiles": "CN1CCC(n2cnc(-c3ccc(F)cc3)c2-c2ccnc(N)n2)CC1", "Unit Of Measurement": "%", "inhibition": 3.67}
{"Given Smiles": "NC(=O)c1sc(-n2cnc3ccc(C(F)(F)F)cc32)cc1OCc1ccccc1Br", "Unit Of Measurement": "%", "inhibition": 5.34}
{"Given Smiles": "Cc1ccc2c(-c3ccnc(Nc4ccccc4)n3)c(-c3ccc(F)cc3)nn2n1", "Unit Of Measurement": "%", "inhibition": 3.78}
{"Given Smiles": "CCc1nn2ncccc2c1-c1ccnc(NC2CC2)n1", "Unit Of Measurement": "%", "inhibition": 3.44}
{"Given Smiles": "COc1cc(N2CCN(C(C)C)CC2)ccc1Nc1nc(Nc2ccc(F)cc2C(N)=O)c2cc[nH]c2n1", "Unit Of Measurement": "%", "inhibition": 7.26}

Hey, quick one: what's inhibition for each of these?
1. COC(=O)Nc1nc2ccc(Oc3ccc(NC(=O)Nc4cccc(Cl)c4)cc3)cc2[nH]1
2. COc1ccc(-c2cc3c(N)ncnc3o2)cc1
3. CCn1c(-c2nonc2N)nc2cnc(Oc3cccc(NC(=O)c4ccc(N(C)C)cc4)c3)cc21
4. COc1ccc(-c2nn3ncccc3c2-c2ccnc(Nc3ccc4c(c3)OCCO4)n2)cc1
5. CC(=O)Nc1cccc(C#Cc2cncnc2Nc2ccc(OCc3cccc(F)c3)c(Cl)c2)c1

-- reply
1. -0.55
2. -0.35
3. 79
4. -0.23
5. 2.5
